pIC50: −log10 of the molar value.
Multiple publications report pIC50 for Histone deacetylase 7 (Homo sapiens, UniProt Q8WUI4); what follows is a combined list.

Dear colleague, I am looking for the recorded pIC50 of the following compound: O=C(NO)c1cc(F)c2c(c1)CCN(CC13CC4CC(CC(C4)C1)C3)C2
4.00 to 5.00

Try O=C(/C=C/c1ccc(CNCC23CC4CC(CC(C4)C2)C3)c(F)c1)NO next.
< 4.30

What do we get for O=C(NO)c1ccc(CN2CCC3(C2)C2CC4CC(C2)CC3C4)c(F)c1 (stereo not drawn) ?
4.00 to 5.00

Repeat with CN(C)S(=O)(=O)c1cccc(-c2nnn(Cc3ccc(C(=O)NO)cc3)n2)c1
6.09

Another compound to check: O=C(NO)c1cc(F)c2c(c1)CCN(CC1COC1)C2
5.00 to 6.00

Now consider O=C(NO)c1cc(F)c(CN2CCC3(CCCCC3)C2)cc1F .
5.00 to 6.00

Try the compound O=C(NO)c1ccc(Cn2nnc(-c3ccccc3F)n2)cc1
6.22

Further, for FC(F)c1nnc(-c2ccc(Cn3cnc(-c4ccc(NC5=NCCN5)cc4)c3)cc2)o1 ?
< 4.52

Please answer likewise for O=C(NO)c1ccc(CN(C(=O)N2CCOCC2)c2cccc(Br)c2)cc1
5.82
